Tested on: U251 CNS
Procedure details: NCI-60 one-dose screen, 48 h
Conditions: 10 µM unless noted
The panel holds about 83,000 compounds, 20% with a hit somewhere; the sample as a whole holds those more often. Active and inactive are the calls of the source. Rule for the calls: active = growth percent below 10; inactive = the rest.
Valid outcomes are listed here; reply with one: true for active, false for inactive

Worked examples follow.
{"Molecule": "CC(NC(N)=S)c1ccccc1 (stereo unspecified)", "Classification": "false"}
{"Molecule": "[N-]=[N+]=NCc1ncc(-c2ccc(C(F)(F)F)cc2)c(NC2CCCCCC2)n1", "Classification": "false"}

input: Please state the recorded outcome for this molecule: Nc1nc(NC2CC2)c2ncn(C3C=CC(CO)C3)c2n1 (stereo unspecified)
output: false

input: Please state the recorded outcome for this molecule: "O=C1/C(=C\c2coc3ccccc3c2=O)c2ccccc2N1c1c(Cl)cccc1Cl"
output: false

input: Please state the recorded outcome for this molecule: "CCOC(=O)C(C(=O)OCC)C1CCCCC1"
output: false

* * *

System: RXF 393 renal
Procedure details: NCI-60 one-dose screen, 48 h
Conditions: 10 µM unless noted
About 83,000 compounds went through this panel and 20% of them were active in at least one assay; those are over-represented in the sample as a whole. The source made the active and inactive calls. The calls were made as follows: active = growth percent below 10; inactive = the rest.
Valid outcomes are listed here; reply with one: active, inactive

Worked examples follow.
{"Molecule": "O=C(N/N=C/c1cccc([N+](=O)[O-])c1)c1ccc(Br)o1", "Classification": "inactive"}
{"Molecule": "CCCc1n(Cc2ccc3ccccc3c2)cc[n+]1Cc1ccc2ccccc2c1", "Classification": "active"}
{"Molecule": "CCN1CCN(c2nc(NNC(=O)Cc3ccccc3)nc(N3CCN(C(c4ccccc4)c4ccccc4)CC3)n2)CC1", "Classification": "inactive"}
{"Molecule": "CCOC(CNCc1cc(C)c2[nH]c3ccccc3c2c1C)OCC", "Classification": "inactive"}
{"Molecule": "COc1cc(/C=C2\\CN(C)CC3=C2Nc2nc(SC)[nH]c(=O)c2C3c2cc(OC)c(OC)c(OC)c2)cc(OC)c1OC (stereo unspecified)", "Classification": "inactive"}
{"Molecule": "CCOC(=O)/C=C1/SC(=Nc2ccc(C#N)cc2)N(Cc2ccco2)C1=O", "Classification": "active"}

input: Please state the recorded outcome for this molecule: "Cc1cc(Br)c(C)cc1Br"
output: inactive

input: Please state the recorded outcome for this molecule: "CN1CCN(CCCOc2ccc3ncnc(Nc4ccc(OCc5cccc(F)c5)c(Cl)c4)c3c2)CC1"
output: active

input: Please state the recorded outcome for this molecule: "O=C(Nc1nc2c(C(F)(F)F)cccc2s1)c1cc(Cl)ccc1O"
output: active

* * *

Test system: NCI-H460 lung
Procedure details: NCI-60 one-dose screen, 48 h (100 = growth as untreated, 0 = no growth, -100 = all killed)
Conditions: 10 µM unless noted
Compounds without any hit were thinned out: in the full panel of roughly 83,000, 20% have a hit.
Consider the following compounds and their measured growth readings.
Return type: number; implicit unit %.

Consider the reported growth for these compounds:
{"Compound": "CCOc1cc(/C=C/C(=O)CC(=O)/C=C/c2ccc(OC(=O)CNc3nc4ccc(OC)cc4s3)c(OCC)c2)ccc1OC(=O)CNc1nc2ccc(OC)cc2s1", "Experimental system": "NCI-H460 lung", "Test readout": "growth", "Measurement": 57.5}
{"Compound": "Cc1ccc(C2=NNC(c3sc(Cl)nc3Cl)C2)cc1 (centres undefined)", "Experimental system": "NCI-H460 lung", "Test readout": "growth", "Measurement": 104}
{"Compound": "COc1ccc(/C=C/C(=O)c2cccc(NS(C)(=O)=O)c2)cc1", "Experimental system": "NCI-H460 lung", "Test readout": "growth", "Measurement": 96.4}
{"Compound": "COc1cc(/C=C/C(=O)CC(=O)/C=C/c2ccc(OC(=O)C3C4CC5CC(C4)CC3C5)c(OC)c2)ccc1OC(=O)C1C2CC3CC(C2)CC1C3 (centres undefined)", "Experimental system": "NCI-H460 lung", "Test readout": "growth", "Measurement": 120}

input: Which measured growth value corresponds to "COc1cccc(C=Nc2cc(C(C)C)c(O)cc2C)c1O" ?
output: 107

input: Which measured growth value corresponds to "Cc1csc(C#Cc2cncc(O)c2)n1" ?
output: 121

input: Which measured growth value corresponds to "CSc1nc(-c2ccc(O)cc2O)c2c(=O)[nH]c(Nc3ccc(S(=O)(=O)Nc4nc(C)cc(C)n4)cc3)nc2n1" ?
output: 111

input: Which measured growth value corresponds to CC[C@H]1CN2CCc3cc(OC)c(OC)cc3C2C[C@@H]1CC1NCCc2cc(OC)c(OC)cc21 (some centres undefined) ?
output: -25.6

input: Which measured growth value corresponds to "CC[N+](CCCCCCCCCC[N+](CC)(c1ccccn1)c1ccccn1)(c1ccccn1)c1ccccn1" ?
output: 0.887
